Ref: the kinase profiling compilation of Christmann-Franck et al. (2016)

// inhibition lookup, one value per entry
- test-target: EPHB2 (human)
- experiment-summary: Caliper, Mobility shift assay off-chip
- condition-parameters: compound 0.02 µM
parameter-measured: inhibition (%)

INSERT INTO measurements (structure_notation, test_target, readout_value) VALUES
  ('CNC(=O)c1cc(Oc2ccc(NC(=O)Nc3ccc(Cl)c(C(F)(F)F)c3)cc2)ccn1', 'EPHB2 (human)', -2.9),
  ('CNC(=O)c1ccccc1Sc1ccc2c(/C=C/c3ccccn3)n[nH]c2c1', 'EPHB2 (human)', -5.2),
  ('Cc1ccc(Nc2nccc(N(C)c3ccc4c(C)n(C)nc4c3)n2)cc1S(N)(=O)=O', 'EPHB2 (human)', -1.3),
  ('COc1cc2c(Oc3ccc4[nH]c(C)cc4c3F)ncnc2cc1OCCCN1CCCC1', 'EPHB2 (human)', -4.3);
